Molecular target: pooled human IgG (human IgG1,2,3 and 4)
OBSERVED PROPERTY: Enzyme Activity Endpoint Assay: Fab'2 (ng/µL)
// return numeric value only (unit: ng/µL, not printed)

Entry PRT-188 (protein) MANQEIRYSEVTPYHVTSVWTKGVTPPANFRKIVDGNIAYYAAPYVANQGWYDITKTFNGKDDLLCGAATAGNMLHWWFDQNKDQIKRYLEEHPEKQKINFNGEQMFDVKELNTYESDHGYRDKSKLFEYFKEKAFPYLSTKHLGVFPDHVIDMFINGYRLSLTNHGPTPVKEGSKDPRGGIFDAVFTRGDQSKLLTSRHDFKEKNLKEISDLIKKELTEGKALGLSHTYANVRINHVINLWGADFDSNGNLKAIYVTDSDDKKLTIGDERIGMKKYFVGVNSAGKVAISAKEIKEDNIGAQVLGLFTLSTGQDSWNQTN — recorded Enzyme Activity Endpoint Assay: Fab'2 = 0

Entry PRT-189 (protein) MANQEIRYSEVTPYHVTSVWTKGVTPPDHDFANFTQGEDVFHAPYVANQGWYDITKTFNGKDDLLCGAATAGNMLHWWFDQNKDQIKRYLEEHPEKQKINFNGEQMFDVKEAIDTKNHQLDSKLFEYFKEKAFPYLSTKHLGVFPDHVIDMFINGYRLSLTNHGPTPVKEGSKDPRGGIFDAVFTRGDQSKLLTSRHDFKEKNLKEISDLIKKELTEGKALGLSHTYANVRINHVINLWGADFDSNGNLKAIYVTDSDSNASIGMKKYFVGVNSAGKVAISAKEIKEDNIGAQVLGLFTLSTGQDSWNQTN — recorded Enzyme Activity Endpoint Assay: Fab'2 = 469

Entry PRT-179 (protein) MANQEIRYSEVTPYHVTSVWTKGVTPPANFTQGEDVFHAPYVANQGWYDITKTFNGKDDLLCGAATAGNMLHWWFDQNKDQIKRYLEEHPEKQKINFNGEQMFDVKEAIDTKNHQLDSKLFEYFKEKAFPYLSARQLGVFPDHVIDMFINGYRLSLTNHGPTPVKEGSKDPRGGIFDAVFTRGDQSKLLTSRHDFKEKNLKEISDLIKKELTEGKALGLSHTYANVRINHVINLWGADFDSNGNLKAIYVTDSDSNASIGMKKYFVGVNSAGKVAISAKEIKEDNIGAQVLGLFTLSTGQDSWNQTN — recorded Enzyme Activity Endpoint Assay: Fab'2 = 697

Entry PRT-167 (protein) MANQEIRYSEVTPYHVTSVWTKGVTPPTDFTQGEDVFHAPYKANQGWYDITKTFNGKDDLLCGAATAGNMLHWWFDQNKDQIKRYLEEHPEKQKINFNGEQMFDVKEAIDTKNSQLDSKLFEYFKEKAFPYLSTKHLGVFPDHVIDMFINGYRLSLTNHGPTPVKEGSKDPRGGIFDAVFTRGDQSKLLTSRHDFKEKNLKEISDLIKKELTEGKALGLSHTYANVRINHVINLWGADFDSNGNLKAIYVTDSDSNASIGMKKYFVGVNSAGKVAISAKEIKEDNIGAQVLGLFTLSTGQDSWNQTN — recorded Enzyme Activity Endpoint Assay: Fab'2 = 572
